Molecular target: JNK3 (Homo sapiens, UniProt P53779)
Sequence (P53779 whole entry): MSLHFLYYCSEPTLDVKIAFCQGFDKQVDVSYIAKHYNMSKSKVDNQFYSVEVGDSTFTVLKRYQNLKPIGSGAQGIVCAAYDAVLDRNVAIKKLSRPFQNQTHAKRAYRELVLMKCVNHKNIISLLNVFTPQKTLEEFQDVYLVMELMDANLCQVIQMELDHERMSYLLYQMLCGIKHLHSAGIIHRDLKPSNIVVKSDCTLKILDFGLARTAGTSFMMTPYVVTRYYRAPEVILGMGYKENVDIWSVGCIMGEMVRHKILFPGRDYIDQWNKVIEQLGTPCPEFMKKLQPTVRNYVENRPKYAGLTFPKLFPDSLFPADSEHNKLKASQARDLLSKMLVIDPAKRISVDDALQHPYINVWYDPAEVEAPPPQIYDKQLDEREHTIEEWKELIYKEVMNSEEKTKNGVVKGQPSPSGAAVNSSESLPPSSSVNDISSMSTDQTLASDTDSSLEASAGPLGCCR
Assay: JNK3 kinase (intrinsic ATPase, Kinase-Glo) assay
Type: biochemical
Conditions: Table 3a; read-out: Kd JNK3
Endpoint: Kd (nM)

INSERT INTO assay_data (smiles_record, test_target, endpoint, units_symbol, reported_value) VALUES
  ('CN(C)C(=O)c1ccc(O)c(NC(=O)c2cc3c(-c4cnc5[nH]ccc5c4)cccc3s2)c1', 'JNK3 (Homo sapiens, UniProt P53779)', 'Kd', 'nM', 1.41),
  ('CN(C)C(=O)c1cc(NC(=O)c2ccc3ncc(-c4cnc5[nH]ccc5c4)n3c2)ccc1O', 'JNK3 (Homo sapiens, UniProt P53779)', 'Kd', 'nM', 1.48),
  ('O=C(Nc1ccccc1)c1cc2c(-c3cnc4[nH]ccc4c3)cccc2s1', 'JNK3 (Homo sapiens, UniProt P53779)', 'Kd', 'nM', 12.7),
  ('COc1ccc(NC(=O)c2cc3c(-c4cnc5[nH]ccc5c4)cccc3s2)cc1C(=O)N(C)C', 'JNK3 (Homo sapiens, UniProt P53779)', 'Kd', 'nM', 0.52),
  ('Cc1ccc(NC(=O)c2cc3c(-c4cnc5[nH]ccc5c4)cccc3s2)cc1C(=O)N(C)C', 'JNK3 (Homo sapiens, UniProt P53779)', 'Kd', 'nM', 1.93),
  ('CN(C)C(=O)c1cc(NC(=O)c2cc3c(-c4cnc5[nH]ccc5c4)cccc3o2)ccc1O', 'JNK3 (Homo sapiens, UniProt P53779)', 'Kd', 'nM', 2.68),
  ('O=C(Nc1ccc(O)c(C(=O)NCC2CC2)c1)c1cc2c(-c3cnc4[nH]ccc4c3)cccc2s1', 'JNK3 (Homo sapiens, UniProt P53779)', 'Kd', 'nM', 10.9);
